Cited source: patent US6046018A

# Test system: crude enzyme which catalyses chiroinositol, A. r. 1215 origin
# protocol: Relative activities using various coenzymes (Table 2)
# Assay type: biochemical, Agrobacterium rhizogenes 1215
# condition info: activity using NAD is set as 100%
measured metric: Relative activity, A.r.1215 origin (%)
Please state the figure in %; there is no need to write the unit.

What does the record list as Relative activity, A.r.1215 origin for CC(=O)c1ccc[n+]([C@@H]2O[C@H](COP(=O)([O-])OP(=O)(O)OC[C@H]3O[C@@H](n4cnc5c(N)ncnc54)[C@H](O)[C@@H]3O)[C@@H](O)[C@H]2O)c1 [acetyl NAD, acetylpyridine adenine dinucleotide] ?
26

Consider next the compound NC(=O)c1ccc[n+]([C@@H]2O[C@H](COP(=O)([O-])OP(=O)(O)OC[C@H]3O[C@@H](n4cnc5c(N)ncnc54)[C@H](O)[C@@H]3O)[C@@H](O)[C@H]2O)c1 [NAD, nicotinamide adenine dinucleotide] in the same way.
190

Consider next the compound "NC(=O)c1ccc[n+]([C@@H]2O[C@H](COP(=O)([O-])OP(=O)(O)OC[C@H]3O[C@@H](n4cnc5c(N)ncnc54)[C@H](OP(=O)(O)O)[C@@H]3O)[C@@H](O)[C@H]2O)c1" in the same way.
1855

Consider next the compound NC(=O)c1ccc[n+]([C@@H]2O[C@H](COP(=O)([O-])OP(=O)(O)OC[C@H]3O[C@@H](n4cnc5c(=O)[nH]cnc54)[C@H](O)[C@@H]3O)[C@@H](O)[C@H]2O)c1 [deamino NAD, nicotinamide hypoxanthine dinucleotide] in the same way.
44

====

Can you tell me Relative activity, A.r.1215 origin for the items I'm about to list?
# Tested on: crude enzyme which catalyses chiroinositol, A. r. 1215 origin
# protocol: Relative activities using various coenzymes (Table 2)
# Type: biochemical, Agrobacterium rhizogenes 1215
# condition info: activity using NAD is set as 100%
Report field: quantity (unit follows the number).

What does the record list as Relative activity, A.r.1215 origin for Nc1ncnc2c1ncn2[C@@H]1O[C@H](COP(=O)(O)OP(=O)([O-])OC[C@H]2O[C@@H]([n+]3cccc(C=O)c3)[C@H](O)[C@@H]2O)[C@@H](O)[C@H]1O [aldehyde NAD, pyridine aldehyde adenine dinucleotide] ?
15%

Consider next the compound "NC(=S)c1ccc[n+]([C@@H]2O[C@H](COP(=O)([O-])OP(=O)(O)OC[C@H]3O[C@@H](n4cnc5c(N)ncnc54)[C@H](OP(=O)(O)O)[C@@H]3O)[C@@H](O)[C@H]2O)c1" in the same way.
269%

Consider next the compound NC(=S)c1ccc[n+]([C@@H]2O[C@H](COP(=O)([O-])OP(=O)(O)OC[C@H]3O[C@@H](n4cnc5c(N)ncnc54)[C@H](O)[C@@H]3O)[C@@H](O)[C@H]2O)c1 [thio-NAD, thio-nicotinamide adenine dinucleotide] in the same way.
0%

====

# System: crude enzyme which catalyses chiroinositol, S. r. 301 origin
# protocol: Relative activities using various coenzymes (Table 2)
# Type: biochemical, Streptomyces roseogriseus 301
# condition info: activity using NAD is set as 100%
measured metric: Relative activity, S.r.301 origin (%)
Please state the figure in %; there is no need to write the unit.

What does the record list as Relative activity, S.r.301 origin for CC(=O)c1ccc[n+]([C@@H]2O[C@H](COP(=O)([O-])OP(=O)(O)OC[C@H]3O[C@@H](n4cnc5c(N)ncnc54)[C@H](O)[C@@H]3O)[C@@H](O)[C@H]2O)c1 [acetyl NAD, acetylpyridine adenine dinucleotide] ?
195

Consider next the molecule NC(=O)c1ccc[n+]([C@@H]2O[C@H](COP(=O)([O-])OP(=O)(O)OC[C@H]3O[C@@H](n4cnc5c(N)ncnc54)[C@H](O)[C@@H]3O)[C@@H](O)[C@H]2O)c1 [NAD, nicotinamide adenine dinucleotide] in the same way.
100

Consider next the molecule NC(=O)c1ccc[n+]([C@@H]2O[C@H](COP(=O)([O-])OP(=O)(O)OC[C@H]3O[C@@H](n4cnc5c(=O)[nH]cnc54)[C@H](O)[C@@H]3O)[C@@H](O)[C@H]2O)c1 [deamino NAD, nicotinamide hypoxanthine dinucleotide] in the same way.
110

Consider next the molecule Nc1ncnc2c1ncn2[C@@H]1O[C@H](COP(=O)(O)OP(=O)([O-])OC[C@H]2O[C@@H]([n+]3cccc(C=O)c3)[C@H](O)[C@@H]2O)[C@@H](O)[C@H]1O [aldehyde NAD, pyridine aldehyde adenine dinucleotide] in the same way.
20

====

Can you tell me Relative activity, A.r.1215 origin for the items I'm about to list?
# System: crude enzyme which catalyses chiroinositol, A. r. 1215 origin
# protocol: Substrate specificity (Table 3)
# Format: biochemical, Agrobacterium rhizogenes 1215
# condition info: coenzyme replaced by thio-NADP
Report field: quantity (unit follows the number).

What does the record list as Relative activity, A.r.1215 origin for O[C@H]1[C@H](O)[C@H](O)[C@@H](O)[C@H](O)[C@H]1O [D-chiroinositol] ?
100%

Consider next the compound O[C@H]1[C@@H](O)[C@@H](O)[C@@H](O)[C@@H](O)[C@@H]1O [epi-inositol] in the same way.
0%

Consider next the compound OC[C@@H](O)[C@@H](O)[C@H](O)[C@H](O)CO [mannitol] in the same way.
0%

Consider next the compound O[C@H]1[C@H](O)[C@@H](O)[C@H](O)[C@@H](O)[C@H]1O [myoinositol] in the same way.
33%

Consider next the compound O[C@H]1[C@H](O)[C@@H](O)[C@H](O)[C@@H](O)[C@@H]1O [scylloinositol] in the same way.
0%

Consider next the compound O=C(CO)[C@@H](O)[C@H](O)[C@H](O)CO [fructose] in the same way.
0%

====

# Tested on: dehydrogenase which catalyses chiroinositol (Bacillus sp. No. 3 origin)
# protocol: Initial rate of enzyme reaction with various coenzymes
# Type: biochemical
# condition info: 100 mM Gly-NaOH buffer, 10 mM D-chiroinositol, 1 mM coenzyme
measured metric: Optimum pH for the coenzyme (pH)
Please state the figure in pH; there is no need to write the unit.

What does the record list as Optimum pH for the coenzyme for NC(=O)c1ccc[n+]([C@@H]2O[C@H](COP(=O)([O-])OP(=O)(O)OC[C@H]3O[C@@H](n4cnc5c(N)ncnc54)[C@H](O)[C@@H]3O)[C@@H](O)[C@H]2O)c1 [NAD, nicotinamide adenine dinucleotide] ?
11.0

Consider next the molecule Nc1ncnc2c1ncn2[C@@H]1O[C@H](COP(=O)(O)OP(=O)([O-])OC[C@H]2O[C@@H]([n+]3cccc(C=O)c3)[C@H](O)[C@@H]2O)[C@@H](O)[C@H]1O [aldehyde NAD, pyridine aldehyde adenine dinucleotide] in the same way.
10.0

Consider next the molecule NC(=S)c1ccc[n+]([C@@H]2O[C@H](COP(=O)([O-])OP(=O)(O)OC[C@H]3O[C@@H](n4cnc5c(N)ncnc54)[C@H](O)[C@@H]3O)[C@@H](O)[C@H]2O)c1 [thio-NAD, thio-nicotinamide adenine dinucleotide] in the same way.
11.0

Consider next the molecule CC(=O)c1ccc[n+]([C@@H]2O[C@H](COP(=O)([O-])OP(=O)(O)OC[C@H]3O[C@@H](n4cnc5c(N)ncnc54)[C@H](O)[C@@H]3O)[C@@H](O)[C@H]2O)c1 [acetyl NAD, acetylpyridine adenine dinucleotide] in the same way.
10.5

Consider next the molecule NC(=O)c1ccc[n+]([C@@H]2O[C@H](COP(=O)([O-])OP(=O)(O)OC[C@H]3O[C@@H](n4cnc5c(=O)[nH]cnc54)[C@H](O)[C@@H]3O)[C@@H](O)[C@H]2O)c1 [deamino NAD, nicotinamide hypoxanthine dinucleotide] in the same way.
11.0

Consider next the molecule "NC(=O)c1ccc[n+]([C@@H]2O[C@H](COP(=O)([O-])OP(=O)(O)OC[C@H]3O[C@@H](n4cnc5c(N)ncnc54)[C@H](OP(=O)(O)O)[C@@H]3O)[C@@H](O)[C@H]2O)c1" in the same way.
10.0

====

# Test system: crude enzyme which catalyses chiroinositol, S. r. 301 origin
# protocol: Substrate specificity (Table 3)
# Format: biochemical, Streptomyces roseogriseus 301
# Set-up: concentration or dose not given beside the values
# condition info: enzyme assay reaction solution, D-chiroinositol replaced by substrates
measured metric: Relative activity, S.r.301 origin (%)
Please state the figure in %; there is no need to write the unit.

What does the record list as Relative activity, S.r.301 origin for O[C@H]1[C@@H](O)[C@@H](O)[C@@H](O)[C@@H](O)[C@@H]1O [epi-inositol] ?
4

Consider next the compound "O[C@H]1[C@H](O)[C@H](O)[C@@H](O)[C@H](O)[C@H]1O" in the same way.
100

Consider next the compound "O[C@H]1[C@H](O)[C@@H](O)[C@H](O)[C@@H](O)[C@H]1O" in the same way.
0

Consider next the compound "O[C@H]1[C@H](O)[C@@H](O)[C@H](O)[C@@H](O)[C@@H]1O" in the same way.
0

Consider next the compound "OC[C@@H](O)[C@@H](O)[C@H](O)[C@H](O)CO" in the same way.
0

Consider next the compound "O=C(CO)[C@@H](O)[C@H](O)[C@H](O)CO" in the same way.
0
